Sourced from paper PMC8698454

system: Pseudomonas aeruginosa ATCC 27853; type: cell-based; settings: Table S3; technical replicate 1, biological replicate BR3
Where a SMILES comes first, the peptide text is derived from it. [ ]: non-standard residue; d: D form. Bip = N[C@@H](Cc1ccc(-c2ccccc2)cc1)C(=O)O; Lys(N3) = [N-]=[N+]=NCCCC[C@H](N)C(=O)O
The reader will find reported MIC P. aeruginosa ATCC 27853 values listed item by item below.
Measured parameter: MIC P. aeruginosa ATCC 27853 (µg/mL)

INSERT INTO results (molecule, result_units, reported_value) VALUES
  ('[N-]=[N+]=NCCCC[C@@H]1NC(=O)[C@H](Cc2ccccc2)NC(=O)[C@H](CCCNC(=N)N)NC(=O)[C@H](Cc2ccc(-c3ccccc3)cc2)NC(=O)[C@H](Cc2ccc(-c3ccccc3)cc2)NC(=O)[C@H](CCCNC(=N)N)NC1=O [2d] (cyclo(R[Bip][Bip]RF[Lys(N3)]))', 'µg/mL', 256),
  ('[N-]=[N+]=NCCCC[C@H](NC(=O)[C@H](Cc1ccccc1)NC(=O)[C@H](CCCNC(=N)N)NC(=O)[C@H](Cc1ccc(-c2ccccc2)cc1)NC(=O)[C@H](Cc1ccc(-c2ccccc2)cc1)NC(=O)[C@@H](N)CCCNC(=N)N)C(N)=O [2c] (H-R[Bip][Bip]RF[Lys(N3)]-NH2)', 'µg/mL', 16),
  ('[N-]=[N+]=NCCCC[C@H](NC(=O)[C@H](Cc1ccccc1)NC(=O)[C@H](CCCNC(=N)N)NC(=O)[C@H](Cc1c[nH]c2ccccc12)NC(=O)[C@H](Cc1c[nH]c2ccccc12)NC(=O)[C@@H](N)CCCNC(=N)N)C(N)=O [1c] (H-RWWRF[Lys(N3)]-NH2)', 'µg/mL', 32),
  ('[N-]=[N+]=NCCCC[C@@H]1NC(=O)[C@H](Cc2ccccc2)NC(=O)[C@H](CCCNC(=N)N)NC(=O)[C@H](Cc2c[nH]c3ccccc23)NC(=O)[C@H](Cc2c[nH]c3ccccc23)NC(=O)[C@H](CCCNC(=N)N)NC1=O [1d] (cyclo(RWWRF[Lys(N3)]))', 'µg/mL', 128);

====

test system: Staphylococcus aureus ATCC 9144; type: cell-based; conditions: Table S3; technical replicate 2, biological replicate BR3
Where a SMILES comes first, the peptide text is derived from it. [ ]: non-standard residue; d: D form. Bip = N[C@@H](Cc1ccc(-c2ccccc2)cc1)C(=O)O; Lys(N3) = [N-]=[N+]=NCCCC[C@H](N)C(=O)O
Measured parameter: MIC S. aureus ATCC 9144 (µg/mL)

INSERT INTO measurements (compound, target_or_system, result_units, reported_value) VALUES
  ('[N-]=[N+]=NCCCC[C@@H]1NC(=O)[C@H](Cc2ccccc2)NC(=O)[C@H](CCCNC(=N)N)NC(=O)[C@H](Cc2ccc(-c3ccccc3)cc2)NC(=O)[C@H](Cc2ccc(-c3ccccc3)cc2)NC(=O)[C@H](CCCNC(=N)N)NC1=O [2d] (cyclo(R[Bip][Bip]RF[Lys(N3)]))', 'Staphylococcus aureus ATCC 9144', 'µg/mL', 8),
  ('[N-]=[N+]=NCCCC[C@H](NC(=O)[C@H](Cc1ccccc1)NC(=O)[C@H](CCCNC(=N)N)NC(=O)[C@H](Cc1ccc(-c2ccccc2)cc1)NC(=O)[C@H](Cc1ccc(-c2ccccc2)cc1)NC(=O)[C@@H](N)CCCNC(=N)N)C(N)=O [2c] (H-R[Bip][Bip]RF[Lys(N3)]-NH2)', 'Staphylococcus aureus ATCC 9144', 'µg/mL', 8),
  ('[N-]=[N+]=NCCCC[C@@H]1NC(=O)[C@H](Cc2ccccc2)NC(=O)[C@H](CCCNC(=N)N)NC(=O)[C@H](Cc2c[nH]c3ccccc23)NC(=O)[C@H](Cc2c[nH]c3ccccc23)NC(=O)[C@H](CCCNC(=N)N)NC1=O [1d] (cyclo(RWWRF[Lys(N3)]))', 'Staphylococcus aureus ATCC 9144', 'µg/mL', 8),
  ('[N-]=[N+]=NCCCC[C@H](NC(=O)[C@H](Cc1ccccc1)NC(=O)[C@H](CCCNC(=N)N)NC(=O)[C@H](Cc1c[nH]c2ccccc12)NC(=O)[C@H](Cc1c[nH]c2ccccc12)NC(=O)[C@@H](N)CCCNC(=N)N)C(N)=O [1c] (H-RWWRF[Lys(N3)]-NH2)', 'Staphylococcus aureus ATCC 9144', 'µg/mL', 32);

====

The reader will find reported MIC E. coli ATCC 25922 values listed item by item below.
system: Escherichia coli ATCC 25922; type: cell-based; details: Table S3; technical replicate 2, biological replicate BR3
Where a SMILES comes first, the peptide text is derived from it. [ ]: non-standard residue; d: D form. Bip = N[C@@H](Cc1ccc(-c2ccccc2)cc1)C(=O)O; Lys(N3) = [N-]=[N+]=NCCCC[C@H](N)C(=O)O
Measured parameter: MIC E. coli ATCC 25922 (µg/mL)

INSERT INTO results (compound, reported_value) VALUES
  ('[N-]=[N+]=NCCCC[C@H](NC(=O)[C@H](Cc1ccccc1)NC(=O)[C@H](CCCNC(=N)N)NC(=O)[C@H](Cc1ccc(-c2ccccc2)cc1)NC(=O)[C@H](Cc1ccc(-c2ccccc2)cc1)NC(=O)[C@@H](N)CCCNC(=N)N)C(N)=O [2c] (H-R[Bip][Bip]RF[Lys(N3)]-NH2)', 16),
  ('[N-]=[N+]=NCCCC[C@H](NC(=O)[C@H](Cc1ccccc1)NC(=O)[C@H](CCCNC(=N)N)NC(=O)[C@H](Cc1c[nH]c2ccccc12)NC(=O)[C@H](Cc1c[nH]c2ccccc12)NC(=O)[C@@H](N)CCCNC(=N)N)C(N)=O [1c] (H-RWWRF[Lys(N3)]-NH2)', 32),
  ('[N-]=[N+]=NCCCC[C@@H]1NC(=O)[C@H](Cc2ccccc2)NC(=O)[C@H](CCCNC(=N)N)NC(=O)[C@H](Cc2c[nH]c3ccccc23)NC(=O)[C@H](Cc2c[nH]c3ccccc23)NC(=O)[C@H](CCCNC(=N)N)NC1=O [1d] (cyclo(RWWRF[Lys(N3)]))', 64),
  ('[N-]=[N+]=NCCCC[C@@H]1NC(=O)[C@H](Cc2ccccc2)NC(=O)[C@H](CCCNC(=N)N)NC(=O)[C@H](Cc2ccc(-c3ccccc3)cc2)NC(=O)[C@H](Cc2ccc(-c3ccccc3)cc2)NC(=O)[C@H](CCCNC(=N)N)NC1=O [2d] (cyclo(R[Bip][Bip]RF[Lys(N3)]))', 32);

====

Test system: Pseudomonas aeruginosa ATCC 27853
Format: cell-based
Settings: Table S3; technical replicate 2, biological replicate BR2
Protocol: The minimal inhibitory concentration (MIC) of peptides 1a, 1b, 2a, and 2b were determined by broth microdilution according to the Clinical Laboratory Standard Institute (CLSI) method […]-A9. The MICs of the peptides 1c, 1d, 2c, and 2d were determined by broth dilution according to the European Committee for Antimicrobial Susceptibility Testing (EUCAST). […]
Where a SMILES comes first, the peptide text is derived from it. [ ]: non-standard residue; d: D form. Bip = N[C@@H](Cc1ccc(-c2ccccc2)cc1)C(=O)O; Lys(N3) = [N-]=[N+]=NCCCC[C@H](N)C(=O)O
The reader will find reported MIC P. aeruginosa ATCC 27853 values listed item by item below.
Measured parameter: MIC P. aeruginosa ATCC 27853 (µg/mL)

INSERT INTO assay_data (compound, reported_value) VALUES
  ('[N-]=[N+]=NCCCC[C@H](NC(=O)[C@H](Cc1ccccc1)NC(=O)[C@H](CCCNC(=N)N)NC(=O)[C@H](Cc1ccc(-c2ccccc2)cc1)NC(=O)[C@H](Cc1ccc(-c2ccccc2)cc1)NC(=O)[C@@H](N)CCCNC(=N)N)C(N)=O [2c] (H-R[Bip][Bip]RF[Lys(N3)]-NH2)', 16),
  ('[N-]=[N+]=NCCCC[C@@H]1NC(=O)[C@H](Cc2ccccc2)NC(=O)[C@H](CCCNC(=N)N)NC(=O)[C@H](Cc2c[nH]c3ccccc23)NC(=O)[C@H](Cc2c[nH]c3ccccc23)NC(=O)[C@H](CCCNC(=N)N)NC1=O [1d] (cyclo(RWWRF[Lys(N3)]))', 256),
  ('[N-]=[N+]=NCCCC[C@H](NC(=O)[C@H](Cc1ccccc1)NC(=O)[C@H](CCCNC(=N)N)NC(=O)[C@H](Cc1c[nH]c2ccccc12)NC(=O)[C@H](Cc1c[nH]c2ccccc12)NC(=O)[C@@H](N)CCCNC(=N)N)C(N)=O [1c] (H-RWWRF[Lys(N3)]-NH2)', 64),
  ('[N-]=[N+]=NCCCC[C@@H]1NC(=O)[C@H](Cc2ccccc2)NC(=O)[C@H](CCCNC(=N)N)NC(=O)[C@H](Cc2ccc(-c3ccccc3)cc2)NC(=O)[C@H](Cc2ccc(-c3ccccc3)cc2)NC(=O)[C@H](CCCNC(=N)N)NC1=O [2d] (cyclo(R[Bip][Bip]RF[Lys(N3)]))', 256);
